Entry source: ChEMBL document CHEMBL1147423

Tested on: Nannizzia gypsea
Assay: Minimum inhibitory concentration Microsporum gypseum
Type: functional
Assign MIC to each entry below.
Return type: number; implicit unit µg/mL.

I have this molecule here, O=C(O)c1ccc(N/C(S)=N\c2ccccc2/N=C(/S)Nc2ccc(C(=O)O)c(O)c2)cc1O , and I need its recorded MIC. 16

I have this molecule here, COC(=O)c1ccc(/N=C(\S)Nc2ccc(/N=C(/S)Nc3ccc(C(=O)OC)c(O)c3)cc2)cc1O , and I need its recorded MIC. 16

I have this molecule here, CC(=O)N1CCN(c2ccc(OC[C@H]3CO[C@](Cn4ccnc4)(c4ccc(Cl)cc4Cl)O3)cc2)CC1 [KETOCONAZOLE] , and I need its recorded MIC. 16

I have this molecule here, CCOC(=O)c1ccc(/N=C(\S)Nc2cccc(/N=C(/S)Nc3ccc(C(=O)OCC)c(O)c3)c2)cc1O , and I need its recorded MIC. 32

I have this molecule here, CC(C)OC(=O)c1ccc(/N=C(\S)Nc2ccc(/N=C(\S)Nc3ccc(C(=O)OC(C)C)cc3)cc2)cc1 , and I need its recorded MIC. 32

I have this molecule here, COC(=O)c1ccc(/N=C(\S)Nc2cccc(/N=C(/S)Nc3ccc(C(=O)OC)c(O)c3)c2)cc1O , and I need its recorded MIC. 64

I have this molecule here, O=C(O)c1ccc(N/C(S)=N\c2ccccc2/N=C(/S)Nc2ccc(C(=O)O)cc2)cc1 , and I need its recorded MIC. 32

I have this molecule here, O=C(O)c1ccc(/N=C(\S)Nc2ccc(/N=C(/S)Nc3ccc(C(=O)O)c(O)c3)cc2)cc1O , and I need its recorded MIC. 128
